This collection of values is drawn from patent US20240376156A1.

molecular target: T1, TGF-β (Acro Biosystems Cat #TG1-H8217) (human, UniProt P01137 279-390); test: BLI (Octet); biotinylated target on streptavidin sensors, miniprotein as analyte
T1 construct: also called TGFb; Transforming growth factor beta
T1 sequence (P01137 279-390 limits assumed): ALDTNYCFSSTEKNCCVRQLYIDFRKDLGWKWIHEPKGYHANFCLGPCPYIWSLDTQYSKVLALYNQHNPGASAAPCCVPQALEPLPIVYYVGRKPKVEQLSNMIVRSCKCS
PROPERTY MEASURED: pKd
Quick note: pKd values are minus log10 of concentrations in mol/L.

pKd recorded for this binder, TGF-β_mb (designed binder) MSHHHHHHHHSENLYFQSGGGHCTIEVVGVDPEKVEAIAAAYGAEVCEKDGKFEIHLDDPHSAESAAVAISVLTNRPVRLQC , is 6.57
